Please provide measured growth for the entries that follow.
System: CCRF-CEM leukemia
Assay: NCI-60 one-dose screen, 48 h (100 = growth as untreated, 0 = no growth, -100 = all killed)
Details: 10 µM unless noted
Compounds without any hit were thinned out: in the full panel of roughly 83,000, 20% have a hit.
Answers are plain numbers, in %.

Solved cases (5 shown):
- Compound: "COc1cccc(-c2nnc(N)o2)c1"
  growth, %: 103
- Compound: "CC(=O)Oc1c(C)c(OC(C)=O)c2c(c1C(C)=O)OC1CC(=O)C(C(C)=O)=C(O)C21C (stereo unspecified)"
  growth, %: 102
- Compound: "COc1cc(/C=C/C(=O)Nc2cccnc2Nc2cc(OC)c(OC)c(OC)c2)cc(OC)c1OC"
  growth, %: 66.1
- Compound: "CCS(=O)(=O)OCCCl"
  growth, %: 84.7
- Compound: "CCOc1nc(-c2ccccc2)cc2c(O)c(C(=O)n3nc(C)cc3C)[nH]c(=O)c12"
  growth, %: 96.5

Give growth for all compounds that follow.
1. Clc1nc(Cl)c2ncn(-c3ccccc3)c2n1
2. c1ccc2c(c1)[nH]c1c2cc[n+]2cc3c(cc12)CCCC3
3. O=C1NCN(CCO)CN1

Out:
80.3
1.33
99.7

Give growth for all compounds that follow.
1. COc1ccc2c(c1)C(=O)c1c-2c(=O)n(CCCCCCC(=O)NO)c2ccccc12
2. COc1ccc2nc(NC(=O)c3cc(-c4ccc(F)cc4)n4nc(-c5ccccc5)cc4n3)sc2c1
3. N#Cc1cccc(/C=C(/C(=O)c2ccccc2)c2ccccc2)c1

Out:
-7.49
64.1
2.7
